These entries and their values trace back to patent US7652047B2.

tested_system: MEK1^CA (human GST-MEK1, constitutively active, Ser218Asp and Ser222Asp) (Homo sapiens, UniProt Q02750, S218D/S222D)
Construct: GST; made in house; host or cells: Escherichia coli
Sequence (Q02750 whole entry S218D/S222D): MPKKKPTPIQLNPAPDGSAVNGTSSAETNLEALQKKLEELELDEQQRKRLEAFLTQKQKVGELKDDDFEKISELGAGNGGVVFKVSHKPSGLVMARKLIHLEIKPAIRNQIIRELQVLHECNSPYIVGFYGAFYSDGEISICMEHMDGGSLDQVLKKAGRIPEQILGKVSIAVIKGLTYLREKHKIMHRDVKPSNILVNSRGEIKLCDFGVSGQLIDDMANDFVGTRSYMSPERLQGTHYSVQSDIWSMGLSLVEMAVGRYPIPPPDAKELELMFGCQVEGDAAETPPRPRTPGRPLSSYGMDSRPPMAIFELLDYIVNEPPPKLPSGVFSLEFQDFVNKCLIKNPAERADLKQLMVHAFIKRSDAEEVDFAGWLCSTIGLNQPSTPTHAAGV
assay_explanation: MEK1 enzymatic activity assay (MEK1^CA / ERK2 / MBP, [γ-33P]ATP incorporation)
Type: biochemical
assay_conditions: Table 1, compounds of formula I; read-out: Avg IC50
pIC50: −log10 of the molar value.
Kindly supply the reported pIC50 values for the records listed here.

Below are some molecules; for each one, tell me its pIC50.
1. Cc1cc(C)cc(Oc2ccc(Nc3snc(O)c3C(=N)NC(C)CO)cc2)c1 (centres unmarked)
2. Cc1cc(Oc2ccc(F)cc2Cl)ccc1Nc1snc(O)c1C(=N)N(O)C(C)C
3. CC(C)NC(=N)c1c(O)nsc1Nc1ccc(Oc2ccc(Cl)cc2)c(Cl)c1
4. Cc1ccc(F)c(Oc2ccc(Nc3snc(O)c3C(=N)NC(C)C)cc2)c1

1: 6.30 to 7.00; 2: 6.30 to 7.00; 3: 6.30 to 7.00; 4: 7.00 to 9.00

Below are some molecules; for each one, tell me its pIC50.
1. CC(C)NC(=N)c1c(O)nsc1Nc1ccc(Oc2cncnc2)cc1
2. CC(C)NC(=N)c1c(O)nsc1Nc1ccc(Oc2ccc(C(F)(F)F)cc2)c(F)c1
3. CC(CO)NC(=N)c1c(O)nsc1Nc1ccc(Oc2ccc(F)cc2Cl)c(F)c1 (centres unmarked)
4. N=C(NC1CCCCCC1)c1c(O)nsc1Nc1ccc(Oc2ccccc2)cc1

1. 6.30 to 7.00
2. 6.30 to 7.00
3. 7.00 to 9.00
4. 7.00 to 9.00

---

tested_system: MEK1^CA (human GST-MEK1, constitutively active, Ser218Asp and Ser222Asp) (Homo sapiens, UniProt Q02750, S218D/S222D)
Construct: GST; made in house; host or cells: Escherichia coli
assay_explanation: MEK1 enzymatic activity assay (MEK1^CA / ERK2 / MBP, [γ-33P]ATP incorporation)
Assay type: biochemical
assay_conditions: Table 1, compounds of formula I; read-out: Avg IC50
pIC50: −log10 of the molar value.
endpoint_label: pIC50

Examples with their reported pIC50 follow.
                                   molecule  endpoint_label        result
0  N=C(NCC1CCCCC1)c1c(O)nsc1Nc1ccc(Oc2ccccc2)nc1           pIC50  6.30 to 7.00
1  N=C(c1c(O)nsc1Nc1ccc(Oc2cc(F)cc(F)c2)cc1)N1CCOCC1           pIC50        < 6.30
2  CC(C)NC(=N)c1c(O)nsc1Nc1ccc(Oc2cc(F)ccc2Cl)c(Cl)c1           pIC50  7.00 to 9.00
3  CC(C)NC(=N)c1c(O)nsc1Nc1ccc(Oc2ccc(Br)cc2)c(F)c1           pIC50  7.00 to 9.00
4  N=C(c1c(O)nsc1Nc1ccc(Oc2ccccc2)cc1)N(O)Cc1ccccc1           pIC50  6.30 to 7.00
5  CC[C@H](CO)NC(=N)c1c(O)nsc1Nc1ccc(Oc2cccc(C(F)(F)F)c2)cc1C           pIC50  7.00 to 9.00
6  CC(C)(CO)CNC(=N)c1c(O)nsc1Nc1ccc(Oc2ccccc2)cc1           pIC50  7.00 to 9.00
7  CC(C)NC(=N)c1c(O)nsc1Nc1ccc(Oc2ccc(F)cc2Cl)c(Cl)c1           pIC50  6.30 to 7.00
8  CC(CO)NC(=N)c1c(O)nsc1Nc1ccc(OC2CCCCC2)cc1 (stereo not drawn)           pIC50        < 6.30
9  CC(CO)NC(=N)c1c(O)nsc1Nc1ccc(Oc2ccc(S(C)(=O)=O)cc2)cc1 (stereo not drawn)           pIC50        < 6.30

Below are some molecules; for each one, tell me its pIC50.
1. CC(C)NC(=N)c1c(O)nsc1Nc1ccc(Oc2cccnc2)c(Cl)c1
2. Cc1ccc(Oc2ccc(Nc3snc(O)c3C(=N)NCC3CCCCC3)cc2)cc1
3. Cc1ccc(Oc2ccc(Nc3snc(O)c3C(=N)NC(C)CO)cc2)cc1 (stereo not drawn)

< 6.30
7.00 to 9.00
6.30 to 7.00

Below are some molecules; for each one, tell me its pIC50.
1. CC(CO)NC(=N)c1c(O)nsc1Nc1ccc(Oc2c(F)ccc(F)c2Cl)cc1 (stereo not drawn)
2. CC(C)NC(=N)c1c(O)nsc1Nc1ccc(Oc2cccc(C(F)(F)F)c2Cl)cc1

6.30 to 7.00
7.00 to 9.00

---

tested_system: MEK1^CA (human GST-MEK1, constitutively active, Ser218Asp and Ser222Asp) (Homo sapiens, UniProt Q02750, S218D/S222D)
Construct: GST; made in house; host or cells: Escherichia coli
assay_explanation: MEK1 enzymatic activity assay (MEK1^CA / ERK2 / MBP, [γ-33P]ATP incorporation)
Type: biochemical
assay_conditions: Table 1, compounds of formula I; read-out: Avg IC50
endpoint_label: IC50

Below are some compounds; for each one, tell me its IC50.
1. Cc1ccc(Cl)c(Oc2ccc(Nc3snc(O)c3C(=N)NC(C)C)cc2)c1
2. CCOC(=O)c1cccc(Nc2snc(O)c2C(=N)NCC(C)O)c1 (stereo not drawn)
3. CC(C)NC(=N)c1c(O)nsc1Nc1ccc(Oc2cccc(Cl)c2Cl)cc1
4. CCCCC(CO)NC(=N)c1c(O)nsc1Nc1ccc(Oc2ccccc2)cc1 (stereo not drawn)

["1 to 100 nM", "> 500 nM", "1 to 100 nM", "100 to 500 nM"]

---

tested_system: MEK1^CA (human GST-MEK1, constitutively active, Ser218Asp and Ser222Asp) (Homo sapiens, UniProt Q02750, S218D/S222D)
Construct: GST; made in house; host or cells: Escherichia coli
assay_explanation: MEK1 enzymatic activity assay (MEK1^CA / ERK2 / MBP, [γ-33P]ATP incorporation)
Assay type: biochemical
assay_conditions: Table 1, compounds of formula I; read-out: Avg IC50
Text: Materials and preparation of reagents: Human GST-MEK1 and the constitutively active allele GST-MEK1^CA (harboring the mutations Ser218Asp and Ser222Asp) were subcloned into the […] expression vector pGEM4Z (Promega, Madison, Wis.) from the wild type human MEK1 cDNA. GST-MEK1^CA was expressed in Escherichia coli and partially purified using Glutathione Sepharose 4B affinity resin (Amersham Pharmacia Biotech, Piscataway, N.J.). […]
endpoint_label: IC50

Examples with their reported IC50 follow.
                                   compound           result
0  Cc1cc(C)cc(Oc2ccc(Nc3snc(O)c3C(=N)NC(C)C)cc2)c1  0.001 to 0.1 µM
1  CCC[C@H]1CC[C@H](c2ccc(Nc3s[nH]c(=O)c3C(N)=NCC(O)CO)cc2)CC1 (some centres unmarked)    0.1 to 0.5 µM
2  CC(C)NC(=N)c1c(O)nsc1Nc1ccc(Oc2cccc(Br)c2)cc1  0.001 to 0.1 µM
3  Cc1cc(Oc2ccc(F)cc2Cl)ccc1Nc1snc(O)c1C(=N)N(O)Cc1ccccc1  0.001 to 0.1 µM

Name the recorded IC50 of the compound listed here: `CC(C)NC(=N)c1c(O)nsc1Nc1ccc(Oc2cccc(C(F)(F)F)c2Cl)c(F)c1`
0.001 to 0.1 µM

---

tested_system: MEK1^CA (human GST-MEK1, constitutively active, Ser218Asp and Ser222Asp) (Homo sapiens, UniProt Q02750, S218D/S222D)
Construct: GST; made in house; host or cells: Escherichia coli
assay_explanation: MEK1 enzymatic activity assay (MEK1^CA / ERK2 / MBP, [γ-33P]ATP incorporation)
Assay type: biochemical
assay_conditions: Table 1, compounds of formula I; read-out: Avg IC50
pIC50: −log10 of the molar value.
endpoint_label: pIC50

Examples with their reported pIC50 follow.
>>> print(df.to_string())
                                   compound        result
0  Cc1cccc(Cl)c1Oc1ccc(Nc2snc(O)c2C(=N)NC(C)C)cc1        < 6.30
1  CC(CO)NC(=N)c1c(O)nsc1Nc1ccc(-n2cccn2)cc1 (stereo not shown)        < 6.30
2  N=C(NCCO)c1c(O)nsc1Nc1ccc(Oc2cc(F)cc(F)c2)cc1  6.30 to 7.00
3  CC(C)NC(=N)c1c(O)nsc1Nc1ccc(Oc2c(F)ccc(F)c2Cl)cc1  6.30 to 7.00
4  N=C(NCCCCO)c1c(O)nsc1Nc1ccc(Oc2ccccc2)cc1  7.00 to 9.00

Below are some compounds; for each one, tell me its pIC50.
1. N=C(NC1CC1)c1c(O)nsc1Nc1ccc(Oc2ccccc2)cc1
2. CC(C)NC(=N)c1c(O)nsc1Nc1ccc(Oc2cccc(C(F)(F)F)c2F)cc1
3. CC(C)NC(=N)c1c(O)nsc1Nc1ccc(Oc2ccccc2)cc1
4. CC(C)C(=O)O[C@H]1CC[C@H](c2ccc(Nc3snc(O)c3C(=N)NCC(O)CO)cc2)CC1 (stereo partly shown)
5. N/C(=N\CC1CCCCC1)c1c(O)nsc1Nc1ccccc1C(=O)NCC1CCCCC1

["< 6.30", "7.00 to 9.00", "7.00 to 9.00", "< 6.30", "< 6.30"]
